Origin of the recorded values: patent US8658604B2

Test system: Tryptase, from human lung
ASSAY_NOTES: Enzymatic assay, tryptase
TEST_PARAMETERS: at 100 μM
Where a SMILES comes first, the peptide text is derived from it.
MEASURED_METRIC: Tryptase at 100 μM %
Answer with the figure and its unit, nothing else.

The cases that follow already have their Tryptase at 100 μM % on record.
compound="CC[C@H](C)[C@@H]1NC(=O)[C@@H]2CCCN2C(=O)[C@@H]2CCCN2C(=O)[C@H](CC(=O)O)NC(=O)[C@H](CO)NC(=O)[C@H](CCCCN)NC(=O)[C@H]([C@@H](C)O)NC(=O)[C@@H]2CSSC[C@H](NC1=O)C(=O)N[C@@H](Cc1ccc(O)cc1)C(=O)N1CCC[C@@H]1C(=O)N1CCC[C@H]1C(=O)N[C@@H](Cc1ccccc1)C(=O)N2 [Ex. 5] (HELM PEPTIDE1{F.C.T.K.S.D.P.P.I.C.Y.[dP].P}$PEPTIDE1,PEPTIDE1,2:R3-10:R3|PEPTIDE1,PEPTIDE1,1:R1-13:R2$$$V2.0)" measurement_target="Tryptase, from human lung" result=74%
compound="CC[C@H](C)[C@@H]1NC(=O)[C@@H]2CCCN2C(=O)[C@@H]2CCCN2C(=O)[C@H](CC(=O)O)NC(=O)[C@H]([C@H](C)O)NC(=O)[C@H](CCCCN)NC(=O)[C@H]([C@@H](C)O)NC(=O)[C@@H]2CSSC[C@H](NC1=O)C(=O)N[C@@H](CO)C(=O)N1CCC[C@@H]1C(=O)N1CCC[C@H]1C(=O)N[C@@H](Cc1ccccc1)C(=O)N2 [Ex. 24] (HELM PEPTIDE1{F.C.T.K.[C[C@H](O)[C@H](N[*:1])C(=O)[*:2]].D.P.P.I.C.S.[dP].P}$PEPTIDE1,PEPTIDE1,2:R3-10:R3|PEPTIDE1,PEPTIDE1,1:R1-13:R2$$$V2.0)" measurement_target="Tryptase, from human lung" result=0%
compound="CC[C@H](C)[C@@H]1NC(=O)[C@@H]2CCCN2C(=O)[C@@H]2CCCN2C(=O)[C@H](CC(=O)O)NC(=O)[C@H](CO)NC(=O)[C@H](CCCCN)NC(=O)[C@H]([C@@H](C)O)NC(=O)[C@@H]2CSSC[C@H](NC1=O)C(=O)N[C@@H](CO)C(=O)N[C@H](CC(=O)O)C(=O)N1CCC[C@H]1C(=O)N[C@@H](Cc1ccccc1)C(=O)N2 [Ex. 46] (HELM PEPTIDE1{F.C.T.K.S.D.P.P.I.C.S.[dD].P}$PEPTIDE1,PEPTIDE1,2:R3-10:R3|PEPTIDE1,PEPTIDE1,1:R1-13:R2$$$V2.0)" measurement_target="Tryptase, from human lung" result=44.1%

# evaluate next
For CCCC[C@@H]1NC(=O)[C@H](Cc2ccccc2)NC(=O)[C@H]2CCCN2C(=O)[C@H](Cc2ccc(O)cc2)NC(=O)[C@@H]2CSSC[C@H](NC1=O)C(=O)N[C@@H]([C@@H](C)O)C(=O)N[C@@H](C)C(=O)N[C@@H](CO)C(=O)N[C@@H]([C@@H](C)CC)C(=O)N1CCC[C@H]1C(=O)N1CCC[C@H]1C(=O)N[C@@H](CCC(N)=O)C(=O)N2 [Ex. 122] (HELM PEPTIDE1{[Nle].C.T.A.S.I.P.P.Q.C.Y.[dP].F}$PEPTIDE1,PEPTIDE1,2:R3-10:R3|PEPTIDE1,PEPTIDE1,1:R1-13:R2$$$V2.0) the compound record lists Tryptase at 100 μM % as 0.2%
